Catalogue of compounds with associated Wheat plant response rating
# System: wheat
# Method Summary: Test B pre/postemergence wheat
# Type: in vivo, Triticum aestivum
# Condition Summary: Rate 62 g/ha, Postemergence; scale of 0 to 10 where 0 is no effect and 10 is complete control

{"Structure Notation": "C=C(C)CCn1c(=O)on(C(=O)N(c2ccc(F)cc2)C(C)C)c1=O", "Wheat plant response rating": 0}
{"Structure Notation": "C#CCn1c(=O)on(C(=O)N(c2ccc(F)cc2)C(C)C)c1=O", "Wheat plant response rating": 0}
{"Structure Notation": "CC(C)N(C(=O)n1oc(=O)n(C(C)(C)C)c1=O)c1ccc(Cl)cc1", "Wheat plant response rating": 0}
{"Structure Notation": "CC(C)N(C(=O)n1oc(=O)n(C(C)C)c1=O)c1ccc(F)cc1", "Wheat plant response rating": 3}
{"Structure Notation": "CC(C)N(C(=O)n1oc(=O)n(Cc2ccccc2Cl)c1=O)c1ccc(F)cc1", "Wheat plant response rating": 0}
{"Structure Notation": "Cc1nsc(Cl)c1Cn1c(=O)on(C(=O)N(c2ccccc2)C(C)C)c1=O", "Wheat plant response rating": 0}
{"Structure Notation": "CC(C)N(C(=O)n1oc(=O)n(N(C)C)c1=O)c1ccccc1", "Wheat plant response rating": 3}
{"Structure Notation": "C=CCn1c(=O)on(C(=O)N(c2ccc(Cl)cc2)C(C)C)c1=O", "Wheat plant response rating": 0}
{"Structure Notation": "CC(C)c1noc(C(C)C)c1-n1c(=O)on(C(=O)N(c2ccc(F)cc2)C(C)C)c1=O", "Wheat plant response rating": 0}
{"Structure Notation": "COc1cc(C)cc(C)c1-n1c(=O)on(C(=O)N(c2ccc(F)cc2F)C(C)C)c1=O", "Wheat plant response rating": 0}
